System: ATP;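 further: ATP exposure 15 min at 22 °C before imaging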
Experiment: switch fluorescence ratio, 500 uM ATP over buffer (Cy3 cluster intensity, sum of 5 cycles each) (fold (ratio)); higher = stronger signal-on switching upon ATP binding; sequences stand for … in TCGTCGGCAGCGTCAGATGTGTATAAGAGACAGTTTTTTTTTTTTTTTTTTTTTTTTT…TC
Conditions: aptamer strand: ATP DNA aptamer (quencher-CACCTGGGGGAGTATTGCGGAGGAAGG + anchor), 100 nM annealed; ATP concentration: 500 uM
Give measured switch fluorescence ratio for each item. Keep answers brief.
Answers are plain numbers.

Worked cases, answers included:
[
  {
    "sequence-record": "ATTAGTCTAT",
    "switch fluorescence ratio": 0.988
  },
  {
    "sequence-record": "TTAGAATTAG",
    "switch fluorescence ratio": 1
  },
  {
    "sequence-record": "TCTTGCATGT",
    "switch fluorescence ratio": 1.02
  },
  {
    "sequence-record": "ATCGGGTAA",
    "switch fluorescence ratio": 0.996
  }
]

For each of the items listed, what is its switch fluorescence ratio?
1. GACTGTTAAG
2. ATGTTATAGT
3. GGATGCGCAG
4. GTTACGAAAA
5. GGGGCTTGGA
6. GTTTTTCTGT

Result:
1.02
0.98
0.987
1
1
1.01

For each of the items listed, what is its switch fluorescence ratio?
1. TTCTTCATAG
2. ACATATGGTA
3. AAAGTTTCCG
4. AGGGAGTACA
5. TAGACTGGTG
6. GATAGTAATG
7. GGTACGAAGT

Result:
1: 1.02; 2: 0.98; 3: 1; 4: 1.01; 5: 1.01; 6: 1.01; 7: 1.01

###

System: ATP;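 further: ATP exposure 15 min at 22 °C before imaging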
Experiment: switch fluorescence ratio, 500 uM ATP over buffer (Cy3 cluster intensity, sum of 5 cycles each) (fold (ratio)); higher = stronger signal-on switching upon ATP binding; sequences stand for … in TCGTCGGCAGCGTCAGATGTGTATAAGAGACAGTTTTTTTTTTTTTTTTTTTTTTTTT…TC
Conditions: aptamer strand: ATP DNA aptamer (quencher-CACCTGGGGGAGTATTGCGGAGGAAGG + anchor), 100 nM annealed; ATP concentration: 500 uM
Give measured switch fluorescence ratio for each item. Keep answers brief.
Answers are plain numbers.

[
  {
    "sequence-record": "GGGGGGGAGA",
    "test-system": "ATP",
    "switch fluorescence ratio": 1.02
  }
]

For each of the items listed, what is its switch fluorescence ratio?
1. TAACGTGGGA
2. AGGAAGGCAC
3. ACTTAAAATT

Result:
1. 0.996
2. 1.05
3. 0.996

For each of the items listed, what is its switch fluorescence ratio?
1. ACACGGGGCT
2. TGTTGTTTGC

Result:
1: 1.01; 2: 0.982

For each of the items listed, what is its switch fluorescence ratio?
1. ATAAAAGGTG
2. TTTGGTAAAA
3. GGGTTCTAGT
4. TACGAGTCGT

Result:
1: 1.1; 2: 1.01; 3: 0.997; 4: 1.01

For each of the items listed, what is its switch fluorescence ratio?
1. AAAATGATCG
2. TCATTAATTT
3. GGGATTTGGG
4. AGAACATAGA
5. GGGGTTCTTT

Result:
1. 1.01
2. 0.987
3. 0.974
4. 0.986
5. 1.09

###

Tested on: ATP;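 further: ATP exposure 15 min at 22 °C before imaging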
Test: switch fluorescence ratio, 500 uM ATP over buffer (Cy3 cluster intensity, sum of 5 cycles each) (fold (ratio)); higher = stronger signal-on switching upon ATP binding; sequences stand for … in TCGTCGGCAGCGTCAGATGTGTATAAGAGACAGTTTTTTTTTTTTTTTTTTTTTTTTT…TC
Details: aptamer strand: ATP DNA aptamer (quencher-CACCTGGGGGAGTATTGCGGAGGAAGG + anchor), 100 nM annealed; ATP concentration: 500 uM
value-kind: switch fluorescence ratio

[
  {
    "sequence-record": "CCGGGGGGCT",
    "value-kind": "switch fluorescence ratio",
    "result": 1.09
  },
  {
    "sequence-record": "TGTGGGGCTG",
    "value-kind": "switch fluorescence ratio",
    "result": 1.02
  },
  {
    "sequence-record": "GATCCAAGGG",
    "value-kind": "switch fluorescence ratio",
    "result": 1.01
  },
  {
    "sequence-record": "CACTCGAGTC",
    "value-kind": "switch fluorescence ratio",
    "result": 0.978
  }
]

For each of the items listed, what is its switch fluorescence ratio?
1. CCGCGGTCGT
2. TAGGATTGCT
3. GCAGTACGGG
4. CAGAAGCGGA
5. TGTTTGTGTA

Result:
1: 1.3; 2: 1; 3: 1.42; 4: 1.19; 5: 1.03

For each of the items listed, what is its switch fluorescence ratio?
1. AGCTTTCTAT
2. GGATGGGATG
3. TAAGGGGGGG
4. AGCGAAAGGA

Result:
[0.976, 0.989, 1, 1.01]

For each of the items listed, what is its switch fluorescence ratio?
1. TCTCACGGGG
2. ACGAGGGGGA

Result:
1: 1.29; 2: 1.05

For each of the items listed, what is its switch fluorescence ratio?
1. CGTAGGAGG
2. TGCTATGGGC
3. TGAATAGGGG
4. ATGGTGAAGG

Result:
0.978
1.01
0.989
1.01

###

Tested on: ATP;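 further: ATP exposure 15 min at 22 °C before imaging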
Experiment: switch fluorescence ratio, 500 uM ATP over buffer (Cy3 cluster intensity, sum of 5 cycles each) (fold (ratio)); higher = stronger signal-on switching upon ATP binding; sequences stand for … in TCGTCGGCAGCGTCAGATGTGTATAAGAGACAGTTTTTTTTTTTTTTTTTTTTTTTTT…TC
Details: aptamer strand: ATP DNA aptamer (quencher-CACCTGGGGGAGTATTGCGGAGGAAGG + anchor), 100 nM annealed; ATP concentration: 500 uM
Give measured switch fluorescence ratio for each item. Keep answers brief.
Numbers only.

Worked cases, answers included:
[
  {
    "sequence-record": "AGCTTTCGCG",
    "switch fluorescence ratio": 0.99
  },
  {
    "sequence-record": "GATGCAGTGT",
    "switch fluorescence ratio": 1.05
  },
  {
    "sequence-record": "AGGTAGAGAG",
    "switch fluorescence ratio": 0.992
  },
  {
    "sequence-record": "ATGTTTTTTC",
    "switch fluorescence ratio": 0.977
  }
]

For each of the items listed, what is its switch fluorescence ratio?
1. ATATTGGAGA
2. GTTGGGGAAT
3. TAGGAAGGCG

Result:
1.13
1.04
1.01

###

Tested on: ATP;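 further: ATP exposure 15 min at 22 °C before imaging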
Experiment: switch fluorescence ratio, 500 uM ATP over buffer (Cy3 cluster intensity, sum of 5 cycles each) (fold (ratio)); higher = stronger signal-on switching upon ATP binding; sequences stand for … in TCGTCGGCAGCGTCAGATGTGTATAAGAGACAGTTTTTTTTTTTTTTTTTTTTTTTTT…TC
Conditions: aptamer strand: ATP DNA aptamer (quencher-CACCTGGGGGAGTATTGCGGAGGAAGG + anchor), 100 nM annealed; ATP concentration: 500 uM
Please use MET whenever switch fluorescence ratio is not below 1, and NOT MET whenever it is.

// below: answered sequences
[
  {
    "sequence-record": "TTTGATGGTA",
    "category": "NOT MET"
  },
  {
    "sequence-record": "TCTGGTTAGC",
    "category": "MET"
  },
  {
    "sequence-record": "TTCCCCCCAA",
    "category": "MET"
  }
]

Query: Determine whether this sequence has switch fluorescence ratio no lower than 1: CCAAGGTGGA
Result: MET

Query: Determine whether this sequence has switch fluorescence ratio no lower than 1: TGGTGCAGGC
Result: NOT MET

###

System: ATP;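 further: ATP exposure 15 min at 22 °C before imaging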
Assay: switch fluorescence ratio, 500 uM ATP over buffer (Cy3 cluster intensity, sum of 5 cycles each) (fold (ratio)); higher = stronger signal-on switching upon ATP binding; sequences stand for … in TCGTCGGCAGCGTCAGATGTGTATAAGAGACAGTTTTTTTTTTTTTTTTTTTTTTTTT…TC
Conditions: aptamer strand: ATP DNA aptamer (quencher-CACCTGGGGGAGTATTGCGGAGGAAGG + anchor), 100 nM annealed; ATP concentration: 500 uM
Give measured switch fluorescence ratio for each item. Keep answers brief.
One number for each entry.

Worked cases, answers included:
[
  {
    "sequence-record": "TAATGTATGT",
    "switch fluorescence ratio": 0.977
  },
  {
    "sequence-record": "GGAAAGTAAA",
    "switch fluorescence ratio": 0.982
  },
  {
    "sequence-record": "TGGTTAGAAA",
    "switch fluorescence ratio": 1.04
  },
  {
    "sequence-record": "CAAATCGTCG",
    "switch fluorescence ratio": 0.957
  },
  {
    "sequence-record": "TTTTAATGTT",
    "switch fluorescence ratio": 1
  }
]

For each of the items listed, what is its switch fluorescence ratio?
1. CGCCCCGAGA
2. AGCATGATGG
3. AGGGTGCTCG
4. GAGGATGGCA
5. TGGGCTTAAG
6. TAGGTTTTGT
7. CAGTTCAGTA

Result:
1.02
1.04
1.02
0.981
1.02
1
0.992
